System: pregnenolone level in NCI-H295R cells
Experiment: cells
Format: cell-based
Settings: Homo sapiens, 72 h, read-out: Pregnenolone level in H295R (Elisa) inh.% 1000 nM
inhibition at 1 µM: recorded values
Only the number, expressed in %, is required.

Query (molecule): C=C1CC(C(=O)N[C@H]2CC[C@H](/C=C/c3coc(CN4Cc5ccc(C(F)(F)F)cc5C4)cc3=O)CC2)C1 ; field requested: inhibition at 1 µM
75

---

clearance: recorded values
Assay: Pharmacokinetic test in mice
Type: in vivo
Conditions: mouse; male ICR mice, intravenous administration (2.5 mg/kg), plasma
Protocol: 4.1. Experimental animals: Male ICR mice, 20-25 g, 6 mice/compound, were purchased from Chengdu Dossy Experimental Animals Co., Ltd. […] Before and after administration, 0.06 mL of blood was taken from the orbit under isoflurane anaesthesia and placed in an EDTAK2 centrifuge tube. […] Before analysis and detection, all samples were stored at -80°C, and the samples were quantitatively analysed by LC-MS/MS.
Only the number, expressed in mL/min/kg, is required.

O=C(N[C@H]1CC[C@H](COc2coc(CN3Cc4ccc(C(F)(F)F)cc4C3)cc2=O)CC1)C1CC1 ... 6.21
O=C(N[C@H]1CC[C@H](/C=C/c2coc(CN3Cc4ccc(C(F)(F)F)cc4C3)cc2=O)CC1)C1CC1 ... 6.8
O=C(N[C@H]1CC[C@@H](COc2coc(CN3Cc4ccc(C(F)(F)F)cc4C3)cc2=O)CC1)C1COC1 ... 7.19
CS(=O)(=O)N1CC(OC(=O)N2CCC(COc3coc(CN4Cc5ccc(C(F)(F)F)cc5C4)cc3=O)CC2)C1 ... 8.73

Query (molecule): O=C(N[C@H]1CC[C@H](/C=C/c2coc(CN3Cc4ccc(C(F)(F)F)cc4C3)cc2=O)CC1)[C@H]1CC1(F)F ; field requested: clearance
3.67

Query (molecule): [2H]C([2H])([2H])C(=O)N[C@H]1CC[C@H](COc2coc(CN3Cc4ccc(C(F)(F)F)cc4C3)cc2=O)CC1 ; field requested: clearance
19.9

Query (molecule): [2H]C([2H])([2H])n1cc(C(=O)N[C@H]2CC[C@H](CCc3coc(CN4Cc5ccc(C(F)(F)F)cc5C4)cc3=O)CC2)cn1 ; field requested: clearance
5.22

Query (molecule): O=C(N[C@H]1CC[C@H](/C=C/c2coc(CN3Cc4ccc(C(F)(F)F)cc4C3)cc2=O)CC1)[C@@H]1CC1(F)F ; field requested: clearance
4.9

Query (molecule): Cn1cc(C(=O)N[C@H]2CC[C@H](COc3coc(CN4Cc5ccc(C(F)(F)F)cc5C4)cc3=O)CC2)cn1 ; field requested: clearance
3.34

Query (molecule): [2H]C([2H])([2H])n1cc(C(=O)N[C@H]2CC[C@H](/C=C/c3coc(CN4Cc5ccc(C(F)(F)F)cc5C4)cc3=O)CC2)cn1 ; field requested: clearance
1.69

Query (molecule): O=C(N[C@H]1CC[C@H](/C=C/c2coc(CN3Cc4ccc(C(F)(F)F)cc4C3)cc2=O)CC1)C1CC(F)(F)C1 ; field requested: clearance
4.82

---

clearance: recorded values
Test: Pharmacokinetic test in rats
Format: in vivo
Details: rat; male SD rats, intravenous administration (2.5 mg/kg), plasma
Only the number, expressed in mL/min/kg, is required.

Query (compound): O=C(OC1CC1)N1CCC(/C=C/c2coc(CN3Cc4ccc(C(F)(F)F)cc4C3)cc2=O)CC1 [Compound 31] ; field requested: clearance
9.48
